Hey, just so you know, these numbers are from ChEMBL document CHEMBL1123967.

Tested on: Cavia porcellus
Experiment: Inhibition of LTD4 (5 ng/site) induced vascular permeability in guinea pig skin at dose 10 mg/kg given perorally
Assay type: functional
Conditions: route oral
Provide the reported inhibition in vivo at 10 mg/kg of each item.
Give bare numbers, in %.

The cases that follow already have their inhibition in vivo at 10 mg/kg on record.
compound: CCCCC/C=C/COc1ccc(C(=O)Nc2cccc3c2OC(c2nnn[nH]2)CO3)cc1 (stereo not given)
inhibition in vivo at 10 mg/kg, %: 30.4
//
compound: C=CCCC/C=C/COc1ccc(C(=O)Nc2cccc3c2OC(c2nnn[nH]2)CO3)cc1 (stereo not given)
inhibition in vivo at 10 mg/kg, %: 2.9

Query: Param item = O=C(Nc1cccc2c1OC(c1nnn[nH]1)CO2)c1ccc(OCCCCc2ccccc2)cc1 (stereo not given) ; retrieve measured inhibition in vivo at 10 mg/kg.
Result: 61.8

----------
Target: Cysteinyl leukotriene receptor (Homo sapiens, UniProt Q9Y271+Q9NS75)
Sequence (Q9Y271 whole entry): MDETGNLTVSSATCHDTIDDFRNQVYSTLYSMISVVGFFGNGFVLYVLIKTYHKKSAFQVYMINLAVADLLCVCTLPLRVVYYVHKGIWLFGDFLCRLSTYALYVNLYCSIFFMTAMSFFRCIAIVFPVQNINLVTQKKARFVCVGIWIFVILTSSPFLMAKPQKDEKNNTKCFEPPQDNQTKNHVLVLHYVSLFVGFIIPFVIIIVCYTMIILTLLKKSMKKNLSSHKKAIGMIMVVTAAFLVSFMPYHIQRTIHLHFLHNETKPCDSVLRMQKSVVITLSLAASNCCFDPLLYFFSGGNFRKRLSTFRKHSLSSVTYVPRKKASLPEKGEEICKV
Sequence (Q9NS75 whole entry): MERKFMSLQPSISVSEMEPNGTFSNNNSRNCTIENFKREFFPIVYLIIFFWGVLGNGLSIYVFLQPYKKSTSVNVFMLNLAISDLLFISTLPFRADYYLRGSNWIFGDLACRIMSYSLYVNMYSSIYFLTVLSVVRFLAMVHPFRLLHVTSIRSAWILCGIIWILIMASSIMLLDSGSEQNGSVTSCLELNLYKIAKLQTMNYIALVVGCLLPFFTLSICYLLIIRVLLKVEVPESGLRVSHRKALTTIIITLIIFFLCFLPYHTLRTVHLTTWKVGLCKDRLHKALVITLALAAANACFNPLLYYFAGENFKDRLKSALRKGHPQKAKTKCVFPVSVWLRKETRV
Assay: Inhibition of LTC4 induced smooth muscle contraction of guinea pig ileum
Format: functional, tissue-based, Cavia porcellus
Settings: target entry is the homologue from another species
Criterion: IC50 strictly under 0.01 µM. Met: Criterion met. Not met: Criterion not met.

Study these solved cases before continuing.
molecule: CCCCCCc1ccc(C(=O)Nc2cccc3c(=O)cc(-c4nn[nH]n4)oc23)cc1
class: Criterion not met
--
molecule: CCCCCc1ccc(/C=C/C(=O)Nc2cccc3c2OC(C(=O)O)CO3)cc1 (stereo not given)
class: Criterion not met
--
molecule: CCCCCCCc1ccc(/C=C/C(=O)Nc2cccc3c(=O)cc(-c4nn[nH]n4)oc23)cc1
class: Criterion not met
--
molecule: CCCc1ccc(/C=C/C(=O)Nc2cccc3c2OC(c2nnn[nH]2)CO3)cc1 (stereo not given)
class: Criterion not met
--
molecule: CCCCCCOc1ccc(C(=O)Nc2cccc3c2OC(c2nnn[nH]2)CO3)cc1 (stereo not given)
class: Criterion not met
--
molecule: CCCCCCCCOc1ccc(C(=O)Nc2cccc3c2OC(c2nnn[nH]2)CO3)cc1 (stereo not given)
class: Criterion not met

Query: # TODO verify IC50 < 0.01 µM strictly for this molecule: CCCCCCCOc1ccc(C(=O)Nc2cccc3c2OC(c2nnn[nH]2)CO3)cc1 (stereo not given)
Result: Criterion met

Query: # check: IC50 < 0.01 µM for O=C(Nc1cccc2c(=O)cc(-c3nn[nH]n3)oc12)c1ccc(OCCCc2ccccc2)cc1
Result: Criterion met

Query: Lab log: compare recorded IC50 with 0.01 µM; is it strictly lower for CCCCCCCCCc1ccc(C(=O)Nc2cccc3c(=O)cc(-c4nn[nH]n4)oc23)cc1 ?
Result: Criterion met

Query: Would you kindly verify if IC50 of CCCCc1ccc(C(=O)Nc2cccc3c2OC(c2nnn[nH]2)CO3)cc1 (stereo not given) is strictly less than 0.01 µM?
Result: Criterion not met

----------
Target: Cysteinyl leukotriene receptor (Homo sapiens) (UniProt Q9Y271+Q9NS75)
Experiment: In vivo inhibition of LTD4-induced bronchoconstriction in anesthetized guinea pig.
Type: functional, organism-based
Settings: Cavia porcellus; target entry is the homologue from another species
Exercise: for every item that follows, state its recorded ID50.
One number for each entry, in µg/kg.

In the examples that follow, each entry is paired with its recorded ID50.
compound: CCCCCc1ccc(/C=C/C(=O)Nc2cccc3c2OC(C(=O)O)CO3)cc1 (stereo unspecified)
display.unit: µg/kg
measured.value: 220
--
compound: CCCC/C=C/COc1ccc(C(=O)Nc2cccc3c2OC(c2nnn[nH]2)CO3)cc1 (stereo unspecified)
display.unit: µg/kg
measured.value: 5.5
--
compound: CCCC/C=C/COc1ccc(C(=O)Nc2cccc3c(=O)cc(-c4nn[nH]n4)oc23)cc1
display.unit: µg/kg
measured.value: 1.1
--
compound: O=C(Nc1cccc2c(=O)cc(-c3nnn[nH]3)oc12)c1ccc(OCCCCc2ccccc2)cc1
display.unit: µg/kg
measured.value: 0.8
--
compound: C=CCCCCCCOc1ccc(C(=O)Nc2cccc3c2OC(c2nnn[nH]2)CO3)cc1 (stereo unspecified)
display.unit: µg/kg
measured.value: 1.7

# return ID50 for each item in the list
1. CCCCCC#CCOc1ccc(C(=O)Nc2cccc3c2OC(c2nnn[nH]2)CO3)cc1 (stereo unspecified)
2. O=C(Nc1cccc2c1OC(c1nnn[nH]1)CO2)c1ccc(OCCCCc2ccccc2)cc1 (stereo unspecified)
3. C=CCCCCCCOc1ccc(C(=O)Nc2cccc3c(=O)cc(-c4nn[nH]n4)oc23)cc1
4. CCCCCc1ccc(/C=C/C(=O)Nc2ccccc2OCC(=O)O)cc1
5. CCCCC/C=C/COc1ccc(C(=O)Nc2cccc3c2OC(c2nnn[nH]2)CO3)cc1 (stereo unspecified)

Result:
[6.4, 1.2, 1.9, 4200, 2]

// each listed compound needs a value for ID50
1. CCCCCc1ccc(/C=C/C(=O)Nc2ccccc2OCc2nn[nH]n2)cc1
2. CCCCC/C=C/COc1ccc(C(=O)Nc2cccc3c(=O)cc(-c4nn[nH]n4)oc23)cc1
3. C=CCCC/C=C/COc1ccc(C(=O)Nc2cccc3c(=O)cc(-c4nn[nH]n4)oc23)cc1
4. CCCc1c(OCC(O)COc2ccc3c(=O)cc(C(=O)[O-])oc3c2CCC)ccc(C(C)=O)c1O.[Na+] (stereo unspecified) [FPL-55712 SODIUM SALT]

Result:
[500, 0.72, 1.2, 500]

// for each compound below, give its ID50
1. CCCCCc1ccc(/C=C/C(=O)Nc2cccc3c2OC(c2nnn[nH]2)CO3)cc1 (stereo unspecified)
2. CCCCCC/C=C/COc1ccc(C(=O)Nc2cccc3c2OC(c2nnn[nH]2)CO3)cc1 (stereo unspecified)
3. CCC/C=C/COc1ccc(C(=O)Nc2cccc3c2OC(c2nnn[nH]2)CO3)cc1 (stereo unspecified)
4. CCCCCC#CCOc1ccc(C(=O)Nc2cccc3c(=O)cc(-c4nn[nH]n4)oc23)cc1
5. CCCCCc1ccc(/C=C/C(=O)Nc2cccc3c(=O)cc(C(=O)O)oc23)cc1
6. CCCCCc1ccc(/C=C/C(=O)Nc2ccccc2C(=O)O)cc1
7. CCCCCc1ccc(/C=C/C(=O)Nc2cccc3c(=O)cc(-c4nn[nH]n4)oc23)cc1

Result:
1: 330; 2: 4.1; 3: 13.5; 4: 1.1; 5: 320; 6: 4500; 7: 14

----------
Target: Cysteinyl leukotriene receptor (Homo sapiens, UniProt Q9Y271+Q9NS75)
Assay: Inhibition of LTC4 induced smooth muscle contraction of guinea pig ileum
Format: functional, tissue-based, Cavia porcellus
Conditions: target entry is the homologue from another species
What IC50 was measured for each of the following?
Give bare numbers, in nM.

compound: O=C(Nc1cccc2c1OC(c1nnn[nH]1)CO2)c1ccc(OCCCc2ccccc2)cc1 (configuration not stated)
IC50 (nM): 20
//
compound: CCCCCOc1cccc(/C=C/C(=O)Nc2cccc3c2OC(c2nnn[nH]2)CO3)c1 (configuration not stated)
IC50 (nM): 150
//
compound: CCCCCc1ccc(/C=C/C(=O)Nc2cccc3ccc(-c4nn[nH]n4)cc23)cc1
IC50 (nM): 300
//
compound: C=CCCCCCCOc1ccc(C(=O)Nc2cccc3c2OC(c2nnn[nH]2)CO3)cc1 (configuration not stated)
IC50 (nM): 1.3
//
compound: CCCCCc1ccccc1/C=C/C(=O)Nc1cccc2c1OC(c1nnn[nH]1)CO2 (configuration not stated)
IC50 (nM): 2150
//
compound: CCCCCCCCc1ccc(C(=O)Nc2cccc3c2OC(c2nnn[nH]2)CO3)cc1 (configuration not stated)
IC50 (nM): 100

Items follow; give IC50 for each.
1. CCCCCCCCCOc1ccc(C(=O)Nc2cccc3c(=O)cc(-c4nn[nH]n4)oc23)cc1
2. CCCCCCCOc1ccc(/C=C/C(=O)Nc2cccc3c2OC(c2nnn[nH]2)CO3)cc1 (configuration not stated)
3. CCCCCc1ccc(C(=O)Nc2cccc3c2OC(c2nnn[nH]2)CO3)cc1 (configuration not stated)
4. CCCCCc1ccc(/C=C/C(=O)Nc2ccccc2OCC(=O)O)cc1
5. CCCCCCc1ccc(/C=C/C(=O)Nc2cccc3c2OC(c2nnn[nH]2)CO3)cc1 (configuration not stated)
6. CCCCCOc1cccc(C(=O)Nc2cccc3c2OC(c2nnn[nH]2)CO3)c1 (configuration not stated)

Result:
[7.4, 88, 2600, 9000, 140, 5000]
